Sourced from the supplement of paper PMC8728848

molecular target: Fuc(b1-3)GlcNAc; assay: glycan array binding signal (z-score within array); higher = stronger binding; conditions: glycan notation: IUPAC condensed, linker removed
About 410 targets per protein were measured; listed, in parts, are those with the strongest signals and a random draw of the rest.
Please provide measured glycan array binding signal (z-score) for the entries that follow.
Give a plain numeric answer without units written out.

Quick one: glycan array binding signal (z-score) of Langerin K313I (Homo sapiens), Q9UJ71 (protein) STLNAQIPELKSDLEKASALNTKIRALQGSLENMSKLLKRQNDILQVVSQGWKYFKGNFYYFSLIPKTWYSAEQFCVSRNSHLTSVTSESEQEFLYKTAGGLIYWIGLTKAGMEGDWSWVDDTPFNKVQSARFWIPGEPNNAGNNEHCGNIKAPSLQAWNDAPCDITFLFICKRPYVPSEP ?
-0.307

Quick one: glycan array binding signal (z-score) of GSL-I (Griffonia simplicifolia) (protein) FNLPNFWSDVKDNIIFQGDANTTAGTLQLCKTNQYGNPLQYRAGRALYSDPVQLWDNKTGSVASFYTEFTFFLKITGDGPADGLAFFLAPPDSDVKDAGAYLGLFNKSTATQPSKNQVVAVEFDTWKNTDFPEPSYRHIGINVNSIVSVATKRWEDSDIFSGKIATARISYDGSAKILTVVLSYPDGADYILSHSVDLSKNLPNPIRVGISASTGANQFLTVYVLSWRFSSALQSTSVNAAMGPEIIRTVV ?
-0.236

Quick one: glycan array binding signal (z-score) of DCIR (Homo sapiens), Q9UMR7 (protein) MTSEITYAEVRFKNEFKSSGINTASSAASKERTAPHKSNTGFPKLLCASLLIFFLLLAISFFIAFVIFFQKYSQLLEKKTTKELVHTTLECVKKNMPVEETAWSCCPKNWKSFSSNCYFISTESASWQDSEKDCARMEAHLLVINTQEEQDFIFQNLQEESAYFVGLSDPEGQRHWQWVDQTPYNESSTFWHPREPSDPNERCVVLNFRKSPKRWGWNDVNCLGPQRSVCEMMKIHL ?
-0.551
